B1: HDV Ribozyme (parent)
chain: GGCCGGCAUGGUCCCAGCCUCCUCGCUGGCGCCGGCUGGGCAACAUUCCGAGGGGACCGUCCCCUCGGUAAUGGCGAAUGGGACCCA

variants of: B1; experiment: self-cleavage, relative activity (ratio to wild type); higher = more cleavage; co-transcriptional
Outcome: criterion met for self-cleavage of at least 0.2; criterion not met for anything lower.

{"variant-key": "C19A U27G", "discrete-label": "criterion not met"}
{"variant-key": "U69C C85A", "discrete-label": "criterion met"}
{"variant-key": "C30U A45U", "discrete-label": "criterion met"}
{"variant-key": "C57G A70C", "discrete-label": "criterion met"}
{"variant-key": "C7U C19U", "discrete-label": "criterion not met"}
